target-or-system: P2X4 (Homo sapiens, UniProt Q99571)
Sequence (Q99571 1-388): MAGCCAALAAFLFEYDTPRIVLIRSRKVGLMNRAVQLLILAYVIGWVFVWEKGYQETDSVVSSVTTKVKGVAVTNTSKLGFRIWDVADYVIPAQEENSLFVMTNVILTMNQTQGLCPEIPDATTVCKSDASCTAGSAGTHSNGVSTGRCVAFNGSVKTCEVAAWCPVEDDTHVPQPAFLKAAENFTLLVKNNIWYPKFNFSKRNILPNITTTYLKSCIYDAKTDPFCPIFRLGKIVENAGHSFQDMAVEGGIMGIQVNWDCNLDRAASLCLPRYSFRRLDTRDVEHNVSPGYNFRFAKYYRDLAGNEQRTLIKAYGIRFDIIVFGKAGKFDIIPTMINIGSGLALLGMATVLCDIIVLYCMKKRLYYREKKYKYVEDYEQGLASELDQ
method-summary: Assay B: human P2X4 receptor cell line, mitochondrial photina luminescence (agonist Bz-ATP at EC50)
Type: cell-based
Set-up: host or cells: HEK 293 (recombinant, constitutively expressing; with mitochondrial photina in Assay B)
settings: HEK human P2X4 cell line, photina luminescence, agonist Bz-ATP at EC50, average
metric-name: IC50 (nM)

NS(=O)(=O)c1cc(NC(=O)Cc2ccccc2Cl)ccc1Oc1cccc(C(F)(F)F)c1 [Example 005] ... 90
CN(C)c1cccc(Oc2ccc(NC(=O)Cc3ccccc3Cl)cc2S(N)(=O)=O)c1 [Example 002] ... 79
CS(=O)(=O)c1cccc(COc2ccc(NC(=O)Cc3ccccc3Cl)cc2S(N)(=O)=O)c1 [Example 136] ... 102
Cc1cccc(Cl)c1CC(=O)Nc1ccc(Oc2cccc(Cl)c2)c(S(N)(=O)=O)c1 [Example 096] ... 27
NS(=O)(=O)c1cc(NC(=O)Cc2c(Cl)cc(C(F)(F)F)c(F)c2F)ccc1Oc1cccc(Cl)c1 [Example 115] ... 1420

[P] NS(=O)(=O)c1cc(NC(=O)Cc2ccccc2Cl)ccc1Oc1ccccc1F [Example 010]
[Q] CCOc1ccccc1CC(=O)Nc1ccc(Oc2cccc(Cl)c2)c(S(N)(=O)=O)c1 [Example 088]
Query: Of the two listed items, P and Q , which carries the larger IC50 figure? Answer by quoting the chosen item's label.
Reply: Q
(Q: 190 nM, P: 73 nM)

----------
target-or-system: mouse P2X4 receptors (Mus musculus, UniProt Q9JJX6)
Construct: host or cells: HEK 293 (recombinant, constitutively expressing)
Sequence (Q9JJX6 1-388): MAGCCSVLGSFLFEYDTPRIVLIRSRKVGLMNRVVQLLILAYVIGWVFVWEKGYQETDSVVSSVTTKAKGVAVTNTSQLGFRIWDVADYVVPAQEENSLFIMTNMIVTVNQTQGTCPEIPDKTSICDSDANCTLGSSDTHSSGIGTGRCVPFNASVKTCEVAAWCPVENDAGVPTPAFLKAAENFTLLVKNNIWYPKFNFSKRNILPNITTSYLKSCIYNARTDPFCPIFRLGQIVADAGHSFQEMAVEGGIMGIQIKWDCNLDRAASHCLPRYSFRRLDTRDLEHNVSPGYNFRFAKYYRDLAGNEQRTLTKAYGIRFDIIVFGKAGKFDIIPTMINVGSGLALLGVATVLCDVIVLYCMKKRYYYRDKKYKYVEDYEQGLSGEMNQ
method-summary: Assay B: mouse P2X4 receptor cell line, Fluo8 fluorescence FLIPR (agonist Bz-ATP at EC50)
Type: cell-based
settings: HEK mouse P2X4 cell line, agonist Bz-ATP at EC50, average
metric-name: mouse P2X4 Assay B avg Efficacy (%)

NS(=O)(=O)c1cc(NC(=O)Cc2cc(F)ccc2Cl)ccc1OCC1CCOCC1 ... 65

[A] COC(=O)c1ccc(Oc2ccc(NC(=O)Cc3ccccc3Cl)cc2S(N)(=O)=O)cc1
[B] NS(=O)(=O)c1cc(NC(=O)Cc2ccccc2Cl)ccc1Oc1ccccc1
Query: Hi, I'm comparing two records. Which one has the lower mouse P2X4 Assay B avg Efficacy, A or B ? Answer by quoting the chosen item's label.
Reply: B
